Observed AC50 for Mu-type opioid receptor (Homo sapiens), reported per entry below.

{"molecule": "Nc1nc(Cl)nc2c1ncn2[C@@H]1O[C@H](CO)[C@@H](O)[C@@H]1F", "measuredEndpoint": "AC50", "reading": "> 30 µM"}
{"molecule": "COc1ccc(C(Cl)=C(c2ccc(OC)cc2)c2ccc(OC)cc2)cc1", "measuredEndpoint": "AC50", "reading": "> 30 µM"}
{"molecule": "O=C(c1ccccc1)c1ccc2n1CCC2C(=O)O (configuration not stated)", "measuredEndpoint": "AC50", "reading": "> 30 µM"}
{"molecule": "CCOc1cc2ncc(C#N)c(Nc3ccc(OCc4ccccn4)c(Cl)c3)c2cc1NC(=O)/C=C/CN(C)C", "measuredEndpoint": "AC50", "reading": "> 30 µM"}

Input: State the recorded AC50 for this entry: C[C@H](CCC(=O)O)[C@H]1CC[C@H]2[C@@H]3[C@H](O)C[C@@H]4C[C@H](O)CC[C@]4(C)[C@H]3CC[C@]12C
Output: > 30 µM

Input: Record request: AC50 value, item CCC1(CC)C(=O)NC(=O)N(C)C1=O
Output: > 30 µM

Input: Query: AC50; subject: CN(Cc1ccc(C(C)(C)C)cc1)Cc1cccc2ccccc12
Output: > 30 µM

Input: Given C[C@@H](O)[C@H]1C(=O)N2C(C(=O)O)=C(SCCN=CN)C[C@H]12 [IMIPENEM ANHYDROUS] , state its recorded AC50.
Output: > 300 µM

Input: Query: AC50; subject: O=C(C[S+]([O-])Cc1ccco1)NC/C=C\COc1cc(CN2CCCCC2)ccn1 (configuration not stated)
Output: > 30 µM

Input: Suppose we examine the molecule C[C@@H](Cc1ccccc1)N(C)Cc1ccccc1 ; what AC50 value has been reported?
Output: > 30 µM

Input: GET /values?readout=AC50&item= Nc1c2c(nc3ccccc13)CCCC2O (configuration not stated)
Output: > 30 µM

###

Below are AC50 values recorded for Vasopressin V2 receptor (Homo sapiens, UniProt P30518).

Some entries whose results are on file:
{"compound": "N[C@@H](Cc1cc(I)c(Oc2cc(I)c(O)c(I)c2)c(I)c1)C(=O)O [LEVOTHYROXINE]", "measuredOn": "Vasopressin V2 receptor (Homo sapiens, UniProt P30518)", "AC50": "> 30 µM"}
{"compound": "CCCCOC(=O)C(=O)Nc1cccc(-c2nnn[nH]2)c1 [TAZANOLAST]", "measuredOn": "Vasopressin V2 receptor (Homo sapiens, UniProt P30518)", "AC50": "> 30 µM"}

Input: Query the reported AC50 for Vasopressin V2 receptor (Homo sapiens, UniProt P30518); item: CN(C)[C@@H]1C(O)=C(C(=O)NCN2CCCC2)C(=O)[C@@]2(O)C(O)=C3C(=O)c4c(O)cccc4[C@@](C)(O)[C@H]3C[C@@H]12 [ROLITETRACYCLINE]
Output: > 10 µM

Input: Hello, I am looking for reported AC50 with Vasopressin V2 receptor (Homo sapiens, UniProt P30518) for CCN(C(C)=O)c1cccc(-c2ccnc3c(C#N)cnn23)c1 [ZALEPLON] . Could you help?
Output: > 30 µM

Input: Param readout = AC50; param system = Vasopressin V2 receptor (Homo sapiens, UniProt P30518); param query = CCC1(C)CC(=O)NC1=O (stereo not given) [ETHOSUXIMIDE] ; response: value; note: assay procedure not described here
Sequence (P30518 whole entry): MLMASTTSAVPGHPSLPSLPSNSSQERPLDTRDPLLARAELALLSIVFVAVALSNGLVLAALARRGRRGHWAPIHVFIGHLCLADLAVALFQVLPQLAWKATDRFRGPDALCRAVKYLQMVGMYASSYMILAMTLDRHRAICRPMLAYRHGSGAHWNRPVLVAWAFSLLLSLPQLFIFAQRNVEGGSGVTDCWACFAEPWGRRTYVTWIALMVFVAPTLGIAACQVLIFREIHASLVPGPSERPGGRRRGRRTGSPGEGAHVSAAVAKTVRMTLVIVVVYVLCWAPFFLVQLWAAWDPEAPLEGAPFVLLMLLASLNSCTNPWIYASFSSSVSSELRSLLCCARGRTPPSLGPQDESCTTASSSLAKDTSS
Output: > 10 µM
